# experimental.system: PDE 2A (Homo sapiens (Human), UniProt O00408)
# Sequence (O00408 whole entry, species assumed): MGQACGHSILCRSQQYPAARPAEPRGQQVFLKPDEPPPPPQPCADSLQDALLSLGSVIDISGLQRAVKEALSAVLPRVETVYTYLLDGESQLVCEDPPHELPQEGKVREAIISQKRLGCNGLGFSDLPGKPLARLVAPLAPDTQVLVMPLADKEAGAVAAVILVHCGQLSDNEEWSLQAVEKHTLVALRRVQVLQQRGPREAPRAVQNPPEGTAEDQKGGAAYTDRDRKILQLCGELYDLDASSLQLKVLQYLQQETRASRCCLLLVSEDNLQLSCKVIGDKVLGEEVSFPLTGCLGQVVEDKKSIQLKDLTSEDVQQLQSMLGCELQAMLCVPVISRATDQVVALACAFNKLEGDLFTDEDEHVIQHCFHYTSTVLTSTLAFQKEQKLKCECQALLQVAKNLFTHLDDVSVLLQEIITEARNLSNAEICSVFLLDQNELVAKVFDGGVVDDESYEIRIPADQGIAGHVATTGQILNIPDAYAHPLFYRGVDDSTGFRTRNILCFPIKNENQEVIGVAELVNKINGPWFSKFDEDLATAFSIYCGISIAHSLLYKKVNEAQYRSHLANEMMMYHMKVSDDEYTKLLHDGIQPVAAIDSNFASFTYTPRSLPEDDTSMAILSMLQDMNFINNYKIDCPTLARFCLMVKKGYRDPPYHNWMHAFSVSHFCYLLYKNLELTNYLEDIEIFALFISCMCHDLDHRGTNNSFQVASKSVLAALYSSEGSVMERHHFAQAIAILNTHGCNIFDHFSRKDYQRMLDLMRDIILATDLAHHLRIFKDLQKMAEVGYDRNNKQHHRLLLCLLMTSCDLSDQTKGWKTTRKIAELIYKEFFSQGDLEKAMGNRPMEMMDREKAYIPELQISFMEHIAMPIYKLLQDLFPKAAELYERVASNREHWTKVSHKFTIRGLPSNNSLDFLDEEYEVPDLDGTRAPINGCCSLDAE
assay.endpoint: IC50 (µM)

* O=C(NC1(c2ccc(C(F)(F)F)cn2)CCOCC1)c1cnn2cc(C3CC3)cnc12 | 0.232

A = O=C(NC1(c2ccc(C(F)(F)F)cc2)CCCOC1)c1cnn2cc(C3CC3)cnc12 (racemic)
B = Cc1nn2cc(C3CC3)cnc2c1C(=O)NC1(c2ncc(C(F)(F)F)cc2F)CCOCC1(C)O (racemic)
C = O=C(NC1(c2ccc(Cl)cc2F)CCOC1)c1cnn2cc(C3CC3)cnc12 (racemic)
D = Cc1nn2cc(C3CC3)cnc2c1C(=O)NC1(c2ncc(C(F)(F)F)cc2F)CCOCC1O (single isomer, unassigned) [Example 90b]
E = Cc1cnc2c(C(=O)NC3(c4ccc(C(F)(F)F)nc4)CCOCC3O)cnn2c1 (racemic) [Example 50]
Rank the items in ascending order with respect to IC50. Returns: the labels arranged in the requested order. D, A, B, C, E
(D: 0.014 µM, A: 0.067 µM, B: 0.127 µM, C: 0.331 µM, E: 0.596 µM)

Values from patent US10023575B2
